Assign GI50 to each entry below.
# System: IGROV-1
# Test Method Notes: NCI tumour cell line growth inhibition, 48 h
Active and inactive are the calls of the source. Cut-off read from the data, not from the text of the source: active = GI50 up to about 1.1 µM and inactive = higher.

Quick batch: GI50 for everything below.
1. O=c1ccc2ccc(O)c3c4c(O)ccc5ccc(=O)c(c1c23)c54
2. CCOC(=O)[C@@H]1[C@@H]2NC(=O)N[C@@]1(C)Oc1ccccc12
3. COC(=O)[C@H]1CC(=O)C=C2CCCC21 (some centres undefined)
4. C/C(CC(=O)Nc1cc(C)ccc1C)=N/N=C(N)N
5. Cc1cc(C)nc(NCCC(O)(P(=O)(O)O)P(=O)(O)O)n1

result:
1.82 µM (inactive)
> 100 µM (inactive)
> 100 µM (inactive)
> 100 µM (inactive)
> 100 µM (inactive)

---

Assign GI50 to each entry below.
# Test system: OVCAR-4
# Test Method Notes: NCI tumour cell line growth inhibition, 48 h
Activity calls are given as the source filed them. Rule as the data show it: active = GI50 up to about 1.1 µM and inactive = higher.

Quick batch: GI50 for everything below.
1. NS(=O)(=O)c1ccc(NC(=S)N/C=C2\C(=O)Oc3ccccc3C2=O)cc1
2. C[C@]12CC[C@H]3[C@@H](CCC4=CC(=O)CC[C@@]43C)[C@@H]1CC[C@@H]2C(=O)COS(=O)(=O)c1ccc(Br)cc1

result:
["43 µM (inactive)", "4.5 µM (inactive)"]

Quick batch: GI50 for everything below.
1. O=C1C=C(Nc2ccccc2C(=O)c2ccccc2)c2ccccc2C1=O
2. C=CCNC(=O)/C(Cc1cc(Br)c(OC)c(Br)c1O)=N\O

result:
1: 89.3 µM (inactive); 2: 7.23 µM (inactive)

---

# Tested on: SK-MEL-5
# Test Method Notes: NCI tumour cell line growth inhibition, 48 h
Activity calls are given as the source filed them. Cut-off read from the data, not from the text of the source: active = GI50 up to about 1.1 µM and inactive = higher.
Assign GI50 to each entry below.

Example molecules with recorded GI50:
Molecule	GI50
O=S(=O)(O)c1ccc(/N=N/c2ccccc2)cc1	> 100 µM (inactive)
ClCC1(CCl)COC1	> 100 µM (inactive)
CC(=O)O[C@H]1CC[C@@]2(C)C(=CC[C@@H]3[C@@H]2CC[C@]2(C)c4nc(N)c(C#N)cc4C[C@@H]32)C1	12.8 µM (inactive)
Cc1cnc(/N=c2\sc(C)cn2-c2ncc(C)s2)s1	> 100 µM (inactive)
CC(=O)C1CC[C@@H]2[C@H](CC[C@]3(C)[C@@H](O)CC[C@@H]23)[C@H]1C(=O)O (stereo partly drawn)	> 100 µM (inactive)
COc1ccccc1NC(=O)C(CC(C(=O)Nc1ccccc1OC)/C(C)=N/NC(=O)c1ccccc1O)/C(C)=N/NC(=O)c1ccccc1O (stereo not drawn)	47 µM (inactive)
COc1ccc2c(=O)c(-c3cc(OC)c(OC)cc3OC)coc2c1	1.55 µM (inactive)
CCOC(=O)[C@@H](NC(=O)OC(C)(C)C)[C@@H](O)C(=O)OCC	> 100 µM (inactive)

Quick batch: GI50 for everything below.
1. Nc1ncnc2c1ncn2-c1ccc([N+](=O)[O-])cn1
2. C[C@H](CS)C(=O)N1c2ccccc2C[C@H]1C(=O)O
3. COc1ccc(C(=O)NC2=C(Cl)C(=O)c3ccccc3C2=O)cc1
4. CC(=O)Oc1ccc2cc(Oc3ccc(Cl)c(Cl)c3)c(=O)oc2c1

result:
1: > 100 µM (inactive); 2: > 100 µM (inactive); 3: 1.58 µM (inactive); 4: 20.3 µM (inactive)

Quick batch: GI50 for everything below.
1. Oc1c2c(c(O)c3ccccc13)C1(N=N2)c2ccccc2Oc2ccccc21
2. C[Si](C)(C)/C=C/CN1C(=O)CCC1=O
3. O=C(O)[C@@H]1CSCN1C(=O)[C@@H]1CCC(=S)N1
4. Cc1cc(S(=O)(=O)Nc2nnc3c(C(F)(F)F)cc(Cl)cn23)c(S)cc1Cl

result:
1: 13 µM (inactive); 2: > 100 µM (inactive); 3: > 100 µM (inactive); 4: > 100 µM (inactive)

Quick batch: GI50 for everything below.
1. O=C(/C=N/O)c1c(-c2ccccc2)[nH]c(-c2ccccc2)c1-c1ccccc1
2. O=C(CCCCCNC(=O)c1ccc(Cl)cc1)NO
3. COc1cccc(-n2c(N)c(-c3nc4cc(C(F)(F)F)ccc4s3)c3ccc([N+](=O)[O-])cc3c2=O)c1
4. O=C(NNC(=S)NC1CCCCC1)c1csc(NC(=S)NC2CCCCC2)n1
5. Oc1ccc2ccccc2c1/N=N\c1cccc2ccccc12

result:
["16.2 µM (inactive)", "3.24 µM (inactive)", "> 100 µM (inactive)", "2.01 µM (inactive)", "> 100 µM (inactive)"]

Quick batch: GI50 for everything below.
1. O=c1[nH]c(=O)n(C2OC(CO)C(O)C(F)C2O)cc1F (stereo not drawn)
2. CCCCCCCCCCCCCCCCCCNc1ccn(C2OC(CO)C(OP(=O)(O)OCC3CCC(n4ccc(N)nc4=O)O3)C2O)c(=O)n1 (stereo not drawn)
3. CN(/N=C1\C(=O)Nc2ccccc21)c1ccccc1
4. O=C1Nc2ccccc2Cn2c1cc1oc(-c3ccccc3)cc12
5. Cc1noc(NS(=O)(=O)c2ccc(NC(=O)c3ccc4[nH]c5ccccc5c(=O)c4c3)cc2)c1C
6. COc1cc2c3c(n(C)c(=O)c2cc1OC)-c1cc2c(cc1C3=O)OCO2

result:
1. > 100 µM (inactive)
2. > 100 µM (inactive)
3. 32.6 µM (inactive)
4. 7.57 µM (inactive)
5. 44 µM (inactive)
6. 9.2 µM (inactive)

query: Look up GI50 for this molecule: C=C(Br)COc1ccc2c(C)cc(=O)oc2c1
result: 14.6 µM (inactive)
